biological target: Fyn (UniProt P06241); assay: phosphorylation enrichment, bacterial display (enrichment ratio); higher = better substrate or ligand; peptides without Tyr show the background;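 also: 11-residue human phosphosite peptides and single-mutation variants displayed on the E. coli surface, counted by deep sequencing, each peptide's frequency after selection divided by its frequency in the unselected input library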;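 also: frequency after pTyr selection over input frequency; kinase dosed for 20-30% of maximal phosphorylation in three min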
Sequence (P06241 whole entry, looked up): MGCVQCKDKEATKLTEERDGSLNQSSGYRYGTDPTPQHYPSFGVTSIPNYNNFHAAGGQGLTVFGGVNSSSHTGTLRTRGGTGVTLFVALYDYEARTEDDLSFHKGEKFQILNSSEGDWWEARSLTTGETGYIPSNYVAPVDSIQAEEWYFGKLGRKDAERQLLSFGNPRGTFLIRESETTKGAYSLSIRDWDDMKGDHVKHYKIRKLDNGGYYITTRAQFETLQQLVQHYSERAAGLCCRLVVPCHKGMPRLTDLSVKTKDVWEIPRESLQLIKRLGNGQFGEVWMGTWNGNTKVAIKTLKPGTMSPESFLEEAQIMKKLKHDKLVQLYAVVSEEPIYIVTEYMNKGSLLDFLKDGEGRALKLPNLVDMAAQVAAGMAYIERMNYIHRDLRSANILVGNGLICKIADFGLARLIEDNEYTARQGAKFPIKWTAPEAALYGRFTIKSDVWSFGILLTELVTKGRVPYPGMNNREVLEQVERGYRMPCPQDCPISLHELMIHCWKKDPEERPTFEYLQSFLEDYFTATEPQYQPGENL
The reader will find reported phosphorylation enrichment values listed item by item below.
reported_metric: phosphorylation enrichment

INSERT INTO results (residue_string, target, reported_metric, observed_value) VALUES
  ('GADDSYYTARS [ZAP70_Y492]', 'Fyn (UniProt P06241)', 'phosphorylation enrichment', 0.594),
  ('TVLGEYALPKG [CYP24A1_Y407]', 'Fyn (UniProt P06241)', 'phosphorylation enrichment', 0.491),
  ('VVKLTYNENDN [CAMKK2_Y183_A182T]', 'Fyn (UniProt P06241)', 'phosphorylation enrichment', 0.468),
  ('GVTLLCFGRFN [ADGRD1_Y85_Y85C_YF]', 'Fyn (UniProt P06241)', 'phosphorylation enrichment', 0.443),
  ('RLLVFYPWTQR [HBB_Y36_V35F]', 'Fyn (UniProt P06241)', 'phosphorylation enrichment', 0.616),
  ('TLMNAYSSCSH [KIF11_Y231_R234C]', 'Fyn (UniProt P06241)', 'phosphorylation enrichment', 0.462),
  ('RRNNSYTCFTA [SLC20A2_Y386_YF]', 'Fyn (UniProt P06241)', 'phosphorylation enrichment', 1.19),
  ('GCRSKYVGLWR [KCNQ1_Y184_G189R]', 'Fyn (UniProt P06241)', 'phosphorylation enrichment', 0.401),
  ('FKPENYRRLDI [VHL_Y175_V170F]', 'Fyn (UniProt P06241)', 'phosphorylation enrichment', 0.32),
  ('IFLENYNAGTF [CFI_Y421_H418L_YF]', 'Fyn (UniProt P06241)', 'phosphorylation enrichment', 0.55),
  ('FGVTLYPNSGE [MEP1A_Y472_R476G]', 'Fyn (UniProt P06241)', 'phosphorylation enrichment', 0.481),
  ('GCRSKSVGLWG [KCNQ1_Y184_Y184S]', 'Fyn (UniProt P06241)', 'phosphorylation enrichment', 0.344),
  ('VDASFYGGRGV [ANTXR2_Y381_YF]', 'Fyn (UniProt P06241)', 'phosphorylation enrichment', 0.447),
  ('TTKAKYKTPIF [PLD2_Y573_T577I_YF]', 'Fyn (UniProt P06241)', 'phosphorylation enrichment', 0.499),
  ('WAMPAYNRSKL [WWOX_Y293_L291P]', 'Fyn (UniProt P06241)', 'phosphorylation enrichment', 0.328),
  ('EEALYYLTRVE [SET_Y119_H118Y]', 'Fyn (UniProt P06241)', 'phosphorylation enrichment', 4.26),
  ('GAVDTYCRHNY [HLA-DRB1_Y107_A102G]', 'Fyn (UniProt P06241)', 'phosphorylation enrichment', 0.443),
  ('ASFGPNTRVQS [FOXL2_Y258_Y258N_YF]', 'Fyn (UniProt P06241)', 'phosphorylation enrichment', 0.466),
  ('QDRTYYERVRT [SPEN_Y633_S635R]', 'Fyn (UniProt P06241)', 'phosphorylation enrichment', 1.35),
  ('EPSLDYMVTKI [CPS1_Y768]', 'Fyn (UniProt P06241)', 'phosphorylation enrichment', 0.646),
  ('CTTIHYNFMWN [TP53_Y234_C238W_YF]', 'Fyn (UniProt P06241)', 'phosphorylation enrichment', 0.508),
  ('HHTDECEYDEL [TGM1_Y134_Y134C]', 'Fyn (UniProt P06241)', 'phosphorylation enrichment', 0.869),
  ('AKLKDYYIFNK [CCDC42_Y149]', 'Fyn (UniProt P06241)', 'phosphorylation enrichment', 0.515),
  ('RPGSGYTKIMR [PKLR_Y564_N566K]', 'Fyn (UniProt P06241)', 'phosphorylation enrichment', 0.404),
  ('KIPGRYYETGS [PAX2_Y72_L69P]', 'Fyn (UniProt P06241)', 'phosphorylation enrichment', 0.496),
  ('EEQKKYYNATK [SCN5A_Y1494_M1498T]', 'Fyn (UniProt P06241)', 'phosphorylation enrichment', 0.467),
  ('LNRAGYCDALE [MTUS1_Y151_C148R]', 'Fyn (UniProt P06241)', 'phosphorylation enrichment', 0.537),
  ('SLALFYRKVFH [RBL1_Y792_YF]', 'Fyn (UniProt P06241)', 'phosphorylation enrichment', 0.502);

====

biological target: Fyn (UniProt P06241); experiment: phosphorylation enrichment, bacterial display (enrichment ratio); higher = better substrate or ligand; peptides without Tyr show the background
The reader will find reported phosphorylation enrichment values listed item by item below.
reported_metric: phosphorylation enrichment

INSERT INTO results (residue_string, reported_metric, observed_value) VALUES
  ('KASVDYIRKLQ [MITF_Y360]', 'phosphorylation enrichment', 0.336),
  ('FPKAHYHWLVL [APTX_Y214_R213H_YF]', 'phosphorylation enrichment', 0.447),
  ('QMQNPYSRHSS [MUC13_Y501]', 'phosphorylation enrichment', 0.418),
  ('VEKEKYVSYIS [JMJD1C_Y596_M591V]', 'phosphorylation enrichment', 0.464),
  ('TPRNTYKMTSV [MKI67_Y849_L854V]', 'phosphorylation enrichment', 0.425),
  ('FLTQHHDAKPQ [ANG_Y38_Y38H]', 'phosphorylation enrichment', 0.279),
  ('EFRFIYMAVQH [PTPN11_Y515_Q510E_YF]', 'phosphorylation enrichment', 1.42),
  ('MKDLTYASLCF [ALOX5_Y446]', 'phosphorylation enrichment', 6.75),
  ('AVLALHNSTRD [TGFB1_Y81_Y81H]', 'phosphorylation enrichment', 0.423),
  ('GGRIDYIAGLV [APRT_Y60_D65V]', 'phosphorylation enrichment', 0.418),
  ('EAIAKYDFKAT [GRB2_Y7]', 'phosphorylation enrichment', 0.408),
  ('NSRYTYKLEVK [USH2A_Y3747]', 'phosphorylation enrichment', 0.437),
  ('ELTTCYRKKCS [CCBE1_Y70_C75S]', 'phosphorylation enrichment', 0.454),
  ('SVTCTYSLALN [TP53_Y126_P128L]', 'phosphorylation enrichment', 0.78),
  ('EKEKEYMLPLD [DNM2_Y563_K562E]', 'phosphorylation enrichment', 0.421),
  ('EFAAGYNVKFD [GPX4_Y123]', 'phosphorylation enrichment', 0.465),
  ('SYCYRYCCAAR [SUMF1_Y344_R345C]', 'phosphorylation enrichment', 0.43),
  ('RTVPLYESLRK [DDB1_Y718_P721L]', 'phosphorylation enrichment', 11.7),
  ('SIKDKYVTAVY [KCNH2_Y611_L615V]', 'phosphorylation enrichment', 0.545),
  ('IYGASYVPFAA [RBM47_Y541]', 'phosphorylation enrichment', 10),
  ('MANFVYKAGPS [MAML2_Y515_M514V_YF]', 'phosphorylation enrichment', 0.423),
  ('VGTKRYVAPEV [ACVRL1_Y375_M376V]', 'phosphorylation enrichment', 0.451),
  ('LIFVSYDDWDY [GRIN2A_Y281_S278F]', 'phosphorylation enrichment', 0.966),
  ('ILGRTHYVNHE [NEDD4_Y627_Y627H]', 'phosphorylation enrichment', 0.373),
  ('CITIHYNYMCN [TP53_Y234_T230I]', 'phosphorylation enrichment', 0.423),
  ('GEDEPYAEPYA [APBA1_Y183_S184A]', 'phosphorylation enrichment', 0.609),
  ('DTQNSYRCATS [TSC1_Y304_G305R]', 'phosphorylation enrichment', 0.538),
  ('RNLDTYQKRLR [PLA2G2D_Y126]', 'phosphorylation enrichment', 0.452),
  ('NDFGNYNQQPS [HNRNPA2B1_Y306]', 'phosphorylation enrichment', 0.596),
  ('RAIELCNDKEK [OTULIN_Y244_Y244C]', 'phosphorylation enrichment', 0.509),
  ('VNYGAYINYFK [GLB1_Y488_D491Y]', 'phosphorylation enrichment', 1.22),
  ('KSLFHYRQYSA [CPS1_Y1491]', 'phosphorylation enrichment', 0.54),
  ('GIVEDYRPTFF [ACVRL1_Y421_P424T_YF]', 'phosphorylation enrichment', 0.394),
  ('KKARAYGPGIE [FLNA_Y287]', 'phosphorylation enrichment', 0.357),
  ('TALFIYIRPKA [OR10C1_Y258]', 'phosphorylation enrichment', 0.55),
  ('DGTIVYTGLET [USH2A_Y4487]', 'phosphorylation enrichment', 0.706),
  ('KLADIYQAELR [GFAP_Y116_V115I]', 'phosphorylation enrichment', 0.795),
  ('IVAREYFSKAD [CAMK2B_Y107_E110K_YF]', 'phosphorylation enrichment', 0.469),
  ('LLPNAYIFVVQ [L1CAM_Y418_A415P_YF]', 'phosphorylation enrichment', 0.634),
  ('NMSRIYSTTKV [ACE_Y151_A154T]', 'phosphorylation enrichment', 0.425),
  ('TENAGYFFRVS', 'phosphorylation enrichment', 0.389),
  ('PLKFLYPNIDK [STAT1_Y668_YF]', 'phosphorylation enrichment', 1.16),
  ('LRTAVYHEILI [CREBBP_Y1450]', 'phosphorylation enrichment', 7.22);
